Data provenance is paper PMC8128204.

recordedMetric: melting point

Example cases with answers are listed next.
| molecule | recordedMetric | testResult |
| --- | --- | --- |
| Cc1c(C(=O)NNC(=O)Nc2ccc(Cl)c(C(F)(F)F)c2)oc2ccccc12 [Compound 6c] | melting point | 240 to 242 °C |
| Cc1c(C(=O)NNC(=S)Nc2ccc(F)cc2)oc2ccccc12 [Compound 4d] | melting point | 206 to 210 °C |
| COc1ccc(C=NNC(=O)c2oc3ccccc3c2CN2CCOCC2)cc1 [Compound 17b] | melting point | 200 °C |
| O=C(NNC(=S)Nc1cccc(C(F)(F)F)c1)c1oc2ccccc2c1CN1CCOCC1 [Compound 15c] | melting point | 210 to 212 °C |
| O=C(NN=Cc1ccccc1)c1oc2ccccc2c1CN1CCOCC1 [Compound 17a] | melting point | 174 °C |
| COc1ccc(NC(=O)NNC(=O)c2oc3ccccc3c2CN2CCOCC2)cc1 [Compound 16b] | melting point | 242 to 244 °C |
| COc1ccc(C=NNC(=O)c2oc3ccccc3c2C)cc1 [Compound 8b] | melting point | 236 to 240 °C |
| Cc1c(C(=O)NN=C2CCCc3ccccc32)oc2ccccc12 [Compound 11] | melting point | 180 to 182 °C |

// moving on: another record for melting point
The molecule listed as COc1cccc(C=NNC(=O)c2oc3ccccc3c2C)c1 [Compound 8a] has a reported melting point of 242 to 244 °C
